All values here come from PubChem BioAssay (Tox21).

protocolSummary: qHTS assay to identify small molecule antagonists of the estrogen receptor alpha (ER-alpha) signaling pathway - cell viability counter screen (AID 743074);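 further: HEK293 cells carrying ER-alpha-UAS-bla reporter stimulated with 17beta-estradiol; nearly all actives have a fitted effect of over 45% in size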
testSettings: ERalpha-bla HEK293 viability, CellTiter-Glo luminescence, 18 h; series mostly up to 69.4 µM
Inconclusive results are not listed. Activity calls are given as the source filed them. The call rests on the fitted dose curve.
readoutKind: outcome

Consider the worked cases shown below.
>>> reportedmeasurement("CNC1(C)C2CCC(C2)C1(C)C (stereo not drawn)")
"inactive"
>>> reportedmeasurement("CC(COc1ccccc1)N(CCCl)Cc1ccccc1 (stereo not drawn)")
"inactive"
>>> reportedmeasurement("O=C1CC2(CCCC2)CC(=O)N1CCCCN1CCN(c2ncccn2)CC1")
"inactive"
>>> reportedmeasurement("CN(C)c1ccc2nc3ccc(=[N+](C)C)cc-3sc2c1")
"inactive"
>>> reportedmeasurement("Nc1cc(S(=O)(=O)O)cc2cc(S(=O)(=O)O)cc(O)c12")
"inactive"

The recorded outcome for CCN(CC)C(=O)Nc1ccc(OCC(O)CNC(C)(C)C)c(C(C)=O)c1 (stereo not drawn) is inactive

The recorded outcome for `C=CC(=O)OCCCCCCOC(=O)C=C` is inactive

The recorded outcome for C=C(C)C1CC=C(C)C(OC(C)=O)C1 (stereo not drawn) is inactive

The recorded outcome for `Cc1cc(C2(c3cc(C)c(O)cc3C)OS(=O)(=O)c3ccccc32)c(C)cc1O` is inactive

The recorded outcome for `CC(C)(O)CCC(C)(C)O` is inactive

The recorded outcome for `C=CS(=O)(=O)O` is inactive

The recorded outcome for c1ccc2c(c1)CCCC2C1=NCCN1 (stereo not drawn) is inactive

The recorded outcome for `Clc1ccc2c(c1)C(N1CCNCC1)=Nc1ccccc1O2` is inactive
